# credit: patent US20210155689A1

Target: T1, human LAG-3 on cells (HEK293-hLAG-3 stable cell line) (human, UniProt P18627 23-525)
T1 sequence: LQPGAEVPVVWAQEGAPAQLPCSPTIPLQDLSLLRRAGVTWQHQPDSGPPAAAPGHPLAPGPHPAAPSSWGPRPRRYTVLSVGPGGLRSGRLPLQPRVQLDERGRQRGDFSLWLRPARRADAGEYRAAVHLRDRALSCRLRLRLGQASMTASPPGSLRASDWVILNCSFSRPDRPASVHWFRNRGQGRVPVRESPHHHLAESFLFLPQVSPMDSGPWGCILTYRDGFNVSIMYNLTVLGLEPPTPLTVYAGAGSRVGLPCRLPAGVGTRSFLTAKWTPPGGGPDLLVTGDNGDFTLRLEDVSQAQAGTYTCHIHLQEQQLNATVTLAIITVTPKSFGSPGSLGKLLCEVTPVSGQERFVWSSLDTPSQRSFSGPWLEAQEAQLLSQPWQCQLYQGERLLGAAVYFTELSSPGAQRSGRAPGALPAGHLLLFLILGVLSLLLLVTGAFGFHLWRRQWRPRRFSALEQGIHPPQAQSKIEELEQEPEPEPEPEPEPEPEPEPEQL
Assay: FACS, HEK293-hLAG-3, antibody 40 nM
From the text: A. The binding of antibodies to LAG-3 expressing cells was detected by Flow cytometry (FACS), wherein the method was according to that of Example 5.
Each entry below carries its recorded Mean fluorescence intensity.
Assay metric: Mean fluorescence intensity

1. 405B8H3-1 humanized antibody (antibody, V domains shown) VH: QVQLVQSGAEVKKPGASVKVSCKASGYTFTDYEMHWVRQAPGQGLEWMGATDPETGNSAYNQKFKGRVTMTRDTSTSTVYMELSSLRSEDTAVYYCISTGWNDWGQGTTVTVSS VL: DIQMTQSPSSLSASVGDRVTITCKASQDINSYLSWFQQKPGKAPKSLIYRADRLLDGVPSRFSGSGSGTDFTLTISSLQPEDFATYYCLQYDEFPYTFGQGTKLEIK ... 257
2. 405B8H3-3 humanized antibody (antibody, V domains shown) VH: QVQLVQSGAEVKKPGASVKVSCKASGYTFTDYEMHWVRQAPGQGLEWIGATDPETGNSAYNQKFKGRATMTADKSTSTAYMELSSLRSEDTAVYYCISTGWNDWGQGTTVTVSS VL: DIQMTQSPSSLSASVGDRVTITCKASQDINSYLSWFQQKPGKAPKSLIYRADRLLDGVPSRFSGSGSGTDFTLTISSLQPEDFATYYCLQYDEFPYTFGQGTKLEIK ... 253
3. 405B8H3-9 humanized antibody (antibody, V domains shown) VH: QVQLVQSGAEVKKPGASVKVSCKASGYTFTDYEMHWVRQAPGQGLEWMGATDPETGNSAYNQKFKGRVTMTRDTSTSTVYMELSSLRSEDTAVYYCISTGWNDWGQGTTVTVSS VL: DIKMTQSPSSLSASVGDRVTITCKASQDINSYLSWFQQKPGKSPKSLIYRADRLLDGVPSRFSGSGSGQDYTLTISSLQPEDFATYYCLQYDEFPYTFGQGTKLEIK ... 249
